System Tested: N-terminal HiBiT tagged BCL-XL (Homo sapiens, UniProt Q07817)
Construct: expressed in transfected cells; host or cells: HT-1080 (ATCC CCL-121) cells stably transduced with lentivirus pLV-UBC-N-HiBiT-BCL-XL-PGK-puro
Sequence (Q07817 whole entry): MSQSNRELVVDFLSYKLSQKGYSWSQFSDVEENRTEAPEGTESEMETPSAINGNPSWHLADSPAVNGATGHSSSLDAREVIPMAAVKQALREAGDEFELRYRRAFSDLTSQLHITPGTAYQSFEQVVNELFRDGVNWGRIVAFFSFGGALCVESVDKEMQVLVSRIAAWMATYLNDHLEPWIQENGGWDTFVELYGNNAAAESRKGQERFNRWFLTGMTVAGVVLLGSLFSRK
Protocol Description: HiBiT based degradation assay
Assay type: cell-based
Reported Conditions: HT1080 cells expressing N-terminal HiBiT tagged BCL-XL; 24 h; BCL-XL level normalized with DMSO control
Property Name: Ymin (24 h)

compound="Cc1c(OCC(F)(F)CC2CCN(CC(=O)N3CCN(c4cc5c(cc4F)C(=O)N(C4CCC(=O)NC4=O)C5=O)CC3)CC2)cccc1-c1ccc(N2CCc3cccc(C(=O)Nc4nc5ccccc5s4)c3C2)nc1C(=O)O (centres unmarked) [Compound 127]" system_tested="N-terminal HiBiT tagged BCL-XL (Homo sapiens, UniProt Q07817)" property_name="Ymin (24 h)" observed="B (50% ≤ Ymin < 70%)"
compound="Cc1c(OCCCCN2CCC(CN3CCN(c4cc5c(cc4F)C(=O)N(C4CCC(=O)NC4=O)C5=O)CC3)CC2)cccc1-c1ccc(N2CCc3cccc(C(=O)Nc4nc5ccccc5s4)c3C2)nc1C(=O)O (centres unmarked) [Compound 123]" system_tested="N-terminal HiBiT tagged BCL-XL (Homo sapiens, UniProt Q07817)" property_name="Ymin (24 h)" observed="B (50% ≤ Ymin < 70%)"
compound="Cc1c(OCCCC2CCN(CC3CCN(c4cc5c(cc4F)C(=O)N(C4CCC(=O)NC4=O)C5=O)CC3)CC2)cccc1-c1ccc(N2CCc3cccc(C(=O)Nc4nc5ccccc5s4)c3C2)nc1C(=O)O (centres unmarked) [Compound 143]" system_tested="N-terminal HiBiT tagged BCL-XL (Homo sapiens, UniProt Q07817)" property_name="Ymin (24 h)" observed="B (50% ≤ Ymin < 70%)"
